# Test system: parental wild-type Ba/F3 cells
# measurement-notes: Ba/F3 (WT) cell proliferation assay (Alamar Blue)
# Format: cell-based
# measurement-context: Mus musculus, BaF3; 72 hours, Alamar Blue; read-out: BaF3 WT prolif
Structures can show the parent of a compound that is named as a salt.
IC50: recorded values
assay-readout: IC50

compound | result
Nc1cnc(-c2ccn3c(-c4cccc(NC(=O)NCC(F)(F)F)c4)cnc3c2)nc1 | 1.5 µM
O=C(NCC(F)(F)F)Nc1cccc(-c2cnc3cc(-c4ccccn4)ccn23)c1 | 0.16 µM
CC(=O)N1CCN(c2ccc(-c3ccn4c(-c5cccc(NC(=O)NCC(F)(F)F)c5)cnc4c3)cn2)CC1 | 0.82 µM
O=C(NCC(F)(F)F)Nc1cccc(-c2cnc3cc(-c4ncc(F)c(NCCO)n4)ccn23)c1 | 4.2 µM
CC(C)(C(=O)N1CCC1)n1cc(-c2ccn3c(-c4cccc(NC(=O)NCC(F)(F)F)c4)cnc3c2)cn1 | 3.7 µM
O=C(Nc1cccc(-c2cnc3cc(-c4nncs4)ccn23)c1)NC1CC1 | 2.9 µM
CCN(CC)CCc1nnc(-c2ccn3c(-c4cccc(NC(=O)NCC(F)(F)F)c4)cnc3c2)s1 | 1 µM
Nc1nc(-c2ccn3c(-c4cc(NC(=O)NCC(F)(F)F)cc(OC5CCCC5)c4)cnc3c2)ncc1F | 1.4 µM
CCOC(=O)c1cnc(-c2ccn3c(-c4cccc(NC(=O)NCC(F)(F)F)c4)cnc3c2)nc1N | 0.99 µM
Cc1cc(Cl)nnc1-c1ccn2c(-c3cccc(NC(=O)NCC(F)(F)F)c3)cnc2c1 | 0.44 µM
Cc1nc(-c2ccn3c(-c4cccc(NC(=O)NCC(F)(F)F)c4)cnc3c2)ccc1F | 3.4 µM
CCN1CCC(n2cc(-c3ccn4c(-c5cccc(NC(=O)NCC(F)(F)F)c5)cnc4c3)cn2)C1 (stereo not shown) | 0.9 µM
COCCc1nnc(-c2ccn3c(-c4cccc(NC(=O)NCC(F)(F)F)c4)cnc3c2)s1 | 0.15 µM
O=C(NCC(F)(F)F)Nc1cccc(-c2cnc3cc(-c4ccc(C(F)(F)F)nn4)ccn23)c1 | 5.5 µM
NCCNc1nc(-c2ccn3c(-c4cccc(NC(=O)NCC(F)(F)F)c4)cnc3c2)ncc1F | 10 µM
O=C(NCC(F)(F)F)Nc1cccc(-c2cnc3cc(-c4cccnn4)ccn23)c1 [Example 9, hydrochloride] | 6.4 µM

Origin of the recorded values: patent US8796244B2
